test system: HS 578T breast; assay: NCI tumour cell line growth inhibition, 48 h; in the data active = GI50 below about 0.43 µM; inactive = the rest
Would you mind answering with one of these outcomes? active, inactive

Here are 4 molecules together with their reported answers.
CHEMICAL_STRING | CLASS
COc1ccc2c(c1)c(-c1ccc(-c3cn(C)c4ccc(OC)cc34)[nH]1)cn2C | inactive
O=C(COc1cccc(/C=C2\Oc3ccc4ccccc4c3C2=O)c1)c1ccc(Cl)cc1 | inactive
Nc1ccc(C(OC(=O)c2cc3ccccc3c(Cc3c(O)c(C(=O)OC(c4ccc(N)cc4)(c4ccc(N)cc4)c4ccc(N)cc4)cc4ccccc34)c2O)(c2ccc(N)cc2)c2ccc(N)cc2)cc1 | active
NC(=O)c1ccccc1NC(=O)c1ccccc1Cl | inactive

Next molecule, please.
Q: For O=c1oc2c3ccc4cnccc4c3[nH]c2c2ccccc12 , which call appears in the assay record?
A: inactive
